assay: Cytotoxicity against PBMC (unknown origin)
parameter: CC50 (µg/mL)
Numbers only here, please. The scale is µg/mL.

Consider the molecule shown here: "N#CC1=CC2(c3ccccc3Nc3ccccc32)N(/N=C\c2ccccc2)C1=O" What is its recorded CC50?
44.2

Now take the following molecule into account.
Consider the molecule shown here: "C[C@@H]1[C@H](O)[C@@H](C)/C=C/C=C/C=C/C=C/C=C/C=C/C=C/[C@H](O[C@@H]2O[C@H](C)[C@@H](O)[C@H](N)[C@@H]2O)C[C@@H]2O[C@](O)(C[C@@H](O)C[C@@H](O)[C@H](O)CC[C@@H](O)C[C@@H](O)CC(=O)O[C@H]1C)C[C@H](O)[C@H]2C(=O)O" What is its recorded CC50?
7.63

---

experiment: Selectivity index, ratio of CC50 for PBMC (unknown origin) to EC50 for anti-leishmanial activity against axenic amastigote stage of Leishmania infantum; format: toxicity; conditions: read-out: Ratio CC50/EC50
parameter: selectivity ratio

Here is how some molecules turned out for selectivity ratio.
Consider the molecule shown here: "N#CC1=CC2(c3ccccc3Nc3ccccc32)N(/N=C\c2ccccc2)C1=O" What is its recorded selectivity ratio?
8.9

Follow-up entry: "C[C@@H]1[C@H](O)[C@@H](C)/C=C/C=C/C=C/C=C/C=C/C=C/C=C/[C@H](O[C@@H]2O[C@H](C)[C@@H](O)[C@H](N)[C@@H]2O)C[C@@H]2O[C@](O)(C[C@@H](O)C[C@@H](O)[C@H](O)CC[C@@H](O)C[C@@H](O)CC(=O)O[C@H]1C)C[C@H](O)[C@H]2C(=O)O"
4.78

---
Consider the molecule shown here: "CN(C)c1ccc(/C=N\N2C(=O)C(C#N)=CC23c2ccccc2Nc2ccccc23)cc1" What is its recorded selectivity ratio?
> 103

---

Entries and their pIC50 values follow.
assay: Inhibition of Leishmania Trypanothione reductase
# log scale: pIC50 equals minus log10 of the concentration in mol/L

Consider the compound shown here: CCN(CC)CCCC(C)Nc1c2ccc(Cl)cc2nc2ccc(OC)cc12 (stereo not drawn) What is its recorded pIC50?
4.72

Follow-up entry: "OCCN1CCN(CCCN2c3ccccc3Sc3ccc(Cl)cc32)CC1"
5.31

Now take the following compound into account.
Consider the compound shown here: "CN(C)CCCN1c2ccccc2CCc2ccc(Cl)cc21" What is its recorded pIC50?
5.42
